Protein target, amino acids: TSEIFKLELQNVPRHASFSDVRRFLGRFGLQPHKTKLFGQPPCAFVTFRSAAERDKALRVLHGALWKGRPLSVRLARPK
measurement-label: Kd (µM)
I only need the number, in µM, no unit after it.

Exercise: Specify reported Kd for the molecule shown: NCCCNCCCCNCCCN
Key: 1.3
